Target: D206A HtxB (Stutzerimonas stutzeri, UniProt O69061, D238A)
Sequence (O69061 34-298 D238A): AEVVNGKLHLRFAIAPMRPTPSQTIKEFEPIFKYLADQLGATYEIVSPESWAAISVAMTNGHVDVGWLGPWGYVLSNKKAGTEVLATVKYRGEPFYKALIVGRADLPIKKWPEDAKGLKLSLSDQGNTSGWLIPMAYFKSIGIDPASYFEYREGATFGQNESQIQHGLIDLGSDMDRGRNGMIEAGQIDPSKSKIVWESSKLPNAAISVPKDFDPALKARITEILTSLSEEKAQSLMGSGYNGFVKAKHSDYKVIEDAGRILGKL
Conditions: read-out: Calculated Kd; pH 5
pKd: −log10 of the molar value.
assayMetric: pKd

Any idea what pKd was measured for "O=[PH](O)O" ?
< 1.00

----------
Target: D206N HtxB (Stutzerimonas stutzeri, UniProt O69061, D238N)
Sequence (O69061 34-298 D238N limits assumed): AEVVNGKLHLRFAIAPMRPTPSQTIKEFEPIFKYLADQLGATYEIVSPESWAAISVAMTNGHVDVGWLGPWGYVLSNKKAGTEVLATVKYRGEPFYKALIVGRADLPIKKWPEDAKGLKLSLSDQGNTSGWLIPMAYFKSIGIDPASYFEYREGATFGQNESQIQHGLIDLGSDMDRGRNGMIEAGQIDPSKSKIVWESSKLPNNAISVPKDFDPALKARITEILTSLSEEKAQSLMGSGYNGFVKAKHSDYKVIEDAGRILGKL
Experiment: biochemical
Type: binding, Pseudomonas stutzeri
Conditions: read-out: Calculated Kd; pH 5
pKd: −log10 of the molar value.
assayMetric: pKd

Any idea what pKd was measured for O=[PH](O)O [phosphite] ?
< 1.00

----------
Target: D206N HtxB (Stutzerimonas stutzeri, UniProt O69061, D238N)
Test: biochemical
Type: binding, Pseudomonas stutzeri
assayMetric: Kd

Can you look up Kd on D206N HtxB (Stutzerimonas stutzeri, UniProt O69061, D238N) for O=[PH](O)O [phosphite] ?
> 100 mM

----------
Target: WT HtxB (Stutzerimonas stutzeri, UniProt O69061)
Sequence (O69061 34-298): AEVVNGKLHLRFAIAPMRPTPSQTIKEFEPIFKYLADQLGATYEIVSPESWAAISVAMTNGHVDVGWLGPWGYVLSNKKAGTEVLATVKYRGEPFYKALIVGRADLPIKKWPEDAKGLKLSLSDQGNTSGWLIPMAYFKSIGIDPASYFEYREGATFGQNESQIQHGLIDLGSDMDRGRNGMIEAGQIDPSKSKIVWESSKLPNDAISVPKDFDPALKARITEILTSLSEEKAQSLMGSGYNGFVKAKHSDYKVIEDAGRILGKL
assayMetric: pKd
When answering, recall that pKd equals minus log10 of the concentration in mol/L, and write that number alone.

Any idea what pKd was measured for O=[PH](O)O [phosphite] ?
2.76

----------
Molecular target: D206A HtxB (Stutzerimonas stutzeri, UniProt O69061, D238A)
Experiment: biochemical
assayMetric: Kd

Any idea what Kd was measured for "O=[PH](O)O" ?
> 100 mM
